Assay: PK profiles after IV and PO administration to BALB/c mice
Assay type: in vivo
Settings: BALB/c, mouse, blood, iv, 5 mg/kg, IV 5 mg/kg, 0.25 h, individual animals 101-103; read-out: concentration in blood
property-measured: concentration at 0.25 h (ng/mL)
The figure you give is taken to be in ng/mL; do not add the unit.

Lookup: Need concentration at 0.25 h, item CC(=O)c1ccc(-c2cc(C(=O)c3ccc(C(F)(F)F)cc3)n3ccccc23)cc1 [Compound 42]
Found: 1520

###

Test: PK profiles after IV and PO administration to BALB/c mice
Assay type: in vivo
Settings: BALB/c, mouse, blood, po, 20 mg/kg, PO 20.0 mg/kg, mean n=3; read-out: T1/2 (converted)
property-measured: half-life

Lookup: Need half-life, item CC(=O)c1ccc(-c2cc(C(=O)c3ccc(C(F)(F)F)cc3)n3ccccc23)cc1
Found: 11.6 h

The measurements presented in this section are drawn from patent US20230390319A1.
